Taken from patent US8461328B2.

Molecular target: JAK1 (Homo sapiens, UniProt P23458)
Construct: made in house; host or cells: SF9 insect cells (baculovirus)
Sequence (P23458 852-1154): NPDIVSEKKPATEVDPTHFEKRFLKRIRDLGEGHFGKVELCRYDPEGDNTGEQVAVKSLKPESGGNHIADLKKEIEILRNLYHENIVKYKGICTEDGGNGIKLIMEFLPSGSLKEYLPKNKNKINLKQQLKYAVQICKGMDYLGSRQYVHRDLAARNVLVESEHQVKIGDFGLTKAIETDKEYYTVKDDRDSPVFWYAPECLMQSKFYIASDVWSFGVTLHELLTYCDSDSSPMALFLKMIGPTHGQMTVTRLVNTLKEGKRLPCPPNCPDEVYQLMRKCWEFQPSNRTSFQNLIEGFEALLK
Assay: JAK1 inhibition (Table 4)
Type: biochemical
Conditions: read-out: JAK1 Ki
Checkbox rule: Ki lower than 3 nM = Satisfied; Ki not lower than 3 nM = Not satisfied.

{"compound": "CO[C@H](C)c1nc2cnc3[nH]ccc3c2n1C1CCCCC1 [Example 685]", "category": "Not satisfied"}
{"compound": "C[C@@H](O)c1nc2cnc3[nH]ccc3c2n1[C@H]1CC[C@H](C#N)CC1 [Example 641]", "category": "Satisfied"}
{"compound": "c1cncc(CN[C@H]2CC[C@H](n3cnc4cnc5[nH]ccc5c43)CC2)c1 [Example 336]", "category": "Not satisfied"}
{"compound": "N#Cc1cccc(S(=O)(=O)N2CC[C@@H](n3cnc4cnc5[nH]ccc5c43)C2)c1 [Example 434]", "category": "Not satisfied"}
{"compound": "Cc1cc(CN2CCC(n3c([C@@H](C)O)nc4cnc5[nH]ccc5c43)CC2)no1 [Example 899]", "category": "Not satisfied"}

###

Target: JAK2 (Homo sapiens, UniProt O60674)
Construct: made in house; host or cells: SF9 insect cells (baculovirus)
Sequence (O60674 812-1132): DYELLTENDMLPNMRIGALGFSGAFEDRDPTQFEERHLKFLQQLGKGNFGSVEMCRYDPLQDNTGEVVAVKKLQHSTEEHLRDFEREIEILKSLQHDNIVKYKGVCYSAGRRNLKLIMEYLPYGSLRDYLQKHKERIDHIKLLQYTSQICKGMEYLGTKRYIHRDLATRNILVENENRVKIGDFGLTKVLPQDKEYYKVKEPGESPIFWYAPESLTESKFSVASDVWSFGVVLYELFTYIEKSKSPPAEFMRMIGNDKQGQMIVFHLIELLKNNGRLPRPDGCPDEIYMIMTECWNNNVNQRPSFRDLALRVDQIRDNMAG
Assay: JAK2 inhibition (Table 4)
Type: biochemical
Settings: read-out: JAK2 Ki
Threshold 0.02 µM: Ki strictly smaller gives T, otherwise F.

{"compound": "N#CCCN1CCC(n2c(COC3CCCC3)nc3cnc4[nH]ccc4c32)CC1", "category": "F"}
{"compound": "Cc1nc(CN2CCC(n3c([C@@H](C)O)nc4cnc5[nH]ccc5c43)CC2)c(C)o1", "category": "F"}
{"compound": "CC(CF)N1CCC(n2c([C@@H](C)O)nc3cnc4[nH]ccc4c32)CC1 (stereo partly shown)", "category": "F"}
{"compound": "CCS(=O)(=O)N1CCC(C)(n2cnc3cnc4[nH]ccc4c32)CC1", "category": "T"}
{"compound": "c1ccc(CN2CCC[C@@H](n3nnc4cnc5[nH]ccc5c43)C2)cc1", "category": "F"}
{"compound": "O=C(Cc1nc2cnc3[nH]ccc3c2n1C1CCN(Cc2ccccc2)CC1)N1CCS(=O)(=O)CC1", "category": "F"}
{"compound": "Cn1cc(CCc2nc3cnc4[nH]ccc4c3n2C2CCN(CCC#N)CC2)cn1", "category": "F"}
{"compound": "N#CCCN1CCC(n2c(CC(=O)N3CCOCC3)nc3cnc4[nH]ccc4c32)CC1", "category": "F"}
{"compound": "O=C([C@@H]1CC(F)(F)CN1)N1CCC(n2cnc3cnc4[nH]ccc4c32)CC1", "category": "F"}
{"compound": "N#CCCN1CCC(n2c(Cc3cccnc3)nc3cnc4[nH]ccc4c32)CC1", "category": "T"}
{"compound": "N#CCCN1CCC(n2c(CNC(=O)c3ccccn3)nc3cnc4[nH]ccc4c32)CC1", "category": "T"}
{"compound": "N#Cc1cccc(CN2CCC[C@@H](n3cnc4cnc5[nH]ccc5c43)C2)c1", "category": "T"}
{"compound": "c1cc2c(ncc3ncn([C@H]4CC[C@H](N5CCOCC5)CC4)c32)[nH]1", "category": "F"}
{"compound": "CCCc1nc2cnc3[nH]ccc3c2n1C1CCN(CCC#N)CC1", "category": "T"}
{"compound": "C[C@@H](O)c1nc2cnc3[nH]ccc3c2n1[C@H]1CC[C@@H](N2CCC(C#N)CC2)CC1 (relative stereo)", "category": "F"}
{"compound": "COC[C@H]1CC[C@H](n2c([C@@H](C)O)nc3cnc4[nH]ccc4c32)CC1", "category": "F"}
